Consider the following variants; for each one, report its protein stability index.
B1: ZNF449 (parent)
chain: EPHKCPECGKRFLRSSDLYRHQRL

- Variants of: B1
- METHOD_DESCRIPTION: protein stability index of a GFP-peptide fusion (GPS, HEK-293T) (PSI 1-6); higher = more stable;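 further: lentivirally expressed fusions sorted by FACS into six bins by GFP to DsRed ratio, PSI derived from sequencing read proportions per bin multiplied by bin number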
- MEASUREMENT_PARAMETERS: c terminus: a fixed tail appended
Numbers only.

Worked examples follow.
EPHKCPECGKRFLRSSDLYRHARL [Q22A] = 3.04
EPHKCPECGKRCLRSSDLYRHQRL [F12C] = 1.67
ECHKCPECGKRFLRSSDLYRHQRL [P2C] = 3.58
EPHKCPEEGKRFLRSSDLYRHQRL [C8E] = 4.02
EPHKCPECGKRFLRSSDLGRHQRL [Y19G] = 2.92

Need protein stability index for each of these variants.
1. EPHKCPECEKRFLRSSDLYRHQRL [G9E]
2. EWHKCPECGKRFLRSSDLYRHQRL [P2W]
3. EPHKCPECGKRFLRGSDLYRHQRL [S15G]

-- reply
1: 3.15; 2: 3.22; 3: 3.53
